Test: reducers of endogenous Her2 protein level, primary screen, SKBR3 breast tumor cells, AlphaScreen, ATP viability (AID 461);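 also: percent of carrier control wells set as 100% viability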
Settings: 18-24 h, measured here: SKBR3 viability, ATP luminescence, at 10 µM
measurement_type: viability (%)
One number for each entry, in %.

Here's what some known entries look like.
CC1(C)NC(=O)N(CC(O)COc2ccc(-c3ccccc3)cc2)C1=O (centres undefined)    101
CC(=O)c1cccc(NC(=O)NCc2ccccn2)c1    91
CC(=O)Nc1ccc(NC(=O)C(C)Oc2ccccc2F)cc1 (centres undefined)    102
Cc1cccc(N(C)C(=O)c2cc3cc4ccc(C)cc4nc3o2)c1    89
CCOC(=O)n1c(SCC(=O)N(CC)CC)nc2ccccc21    118
O=c1oc2ccccc2c(N2CCCCC2)c1CN1CCCCC1    86
O=C(Cc1ccc(Br)cc1)N1CCCCCC1    108
O=C(c1cccs1)c1cn(CC(=O)N2CCc3ccccc3C2)c2ccccc12    93

Below are some compounds; for each one, tell me its viability.
1. CCCCCC(=O)N1CC2(C)CN(C(=O)CCCCC)CC(C)(C1)C2=O
2. C=CCSC1=C(C#N)C(c2ccccc2C)CC(=O)N1 (centres undefined)

stdout:
87
95.5

Provide the reported viability of each entry below, same order.
1. O=C(O)c1cccc(NC(=O)C2C3C=CC(C3)C2C(=O)OCC(F)(F)C(F)F)c1 (centres undefined)
2. CCn1c(SCC(=O)Nc2cc(C)on2)nc2sc3c(c2c1=O)CCCC3

stdout:
1: 102; 2: 91

---

Assay: growth inhibitors of H69AR lung tumor, primary screen, human, duplicate replicates (AID 580);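 also: 100% = mean luminescence of untreated wells and 0% = no signal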
Conditions: H69AR lung tumor cells viability, ATP luminescence, 72 h; at 10 µM; stronger effect = lower value
For each of the compounds below, state its viability.
Numbers only, in %.

// known answers, use as guide
COc1ccc(-c2nnc(SCc3nnc(-c4ccc(Cl)cc4)o3)n2-c2ccccc2)cc1    84.3
COc1ccc(-c2nc(N)nc(C)c2Oc2ccccc2Br)c(O)c1    5.08
CC1(C)NC(=O)N(CCOc2cccc(Cl)c2Cl)C1=O    102
CC(=O)c1ccc(-n2nnnc2SCC(=O)N2CCc3ccccc3C2)cc1    88.9
CC(C)Cn1cc(C(=O)NCC2CCCO2)c2c3ccccc3n(C)c2c1=O (stereo unspecified)    89.5

Per the record, CCOC(=O)CSC1=C(C#N)C(c2ccc(C)cc2)C(C(=O)OC)C(=O)N1 (stereo unspecified) has viability of 91.1

---

Experiment: 384-well plate pilot, post-Golgi transport modulator project, inhibition of yeast transport mutant growth (AID 636)
Settings: absorbance 615 nm, about 18 h, stronger effect = higher value
measurement_type: inhibition (%)
Numbers only, in %.

Known inhibition results, listed for orientation:
CCC(CCC(=O)Nc1cccc(C(=O)O)c1)C(=O)O (stereo unspecified)    -0.82
CCOC(=O)N1CCN(C(=O)COc2cc(=O)n(C)c3ccccc23)CC1    0.91
Cc1ccc(S(=O)(=O)N2CCOCC2)cc1C(=O)Nc1ccc(-c2cn3ccsc3n2)cc1    -2.63
Cn1c(CN2CCCCC2)nc2cc(NC(=O)c3ccccc3)ccc21    -7.53
CC(=O)c1cc(-c2ccccc2)n(CC(=O)N2CCN(C3CCCC3)CC2)c1C    -5.58

Would you mind listing inhibition for each of the following molecules?
1. Cc1ccc2c(c1)NC(=O)C(CC(=O)NCCCN1CCN(c3cc(Cl)ccc3C)CC1)O2 (stereo unspecified)
2. S=c1[nH]nc(Cc2ccccc2)n1Cc1ccco1

stdout:
1: 3.07; 2: -1.64

---

Assay: reversal of MRP1-mediated doxorubicin resistance, pilot screen, H69AR cells, doxorubicin co-treatment (AID 601)
Conditions: H69AR cells, CellTiter-Glo, 72 h; compound alone cytotoxicity; at 10 µM
measurement_type: viability (%)
Answers are plain numbers, in %.

Examples from the recorded data:
COCCc1ccc(OCC(O)CNC(C)C)cc1 (stereo unspecified)    98.3
CCOC(=O)Nc1ccc2c(c1)N(C(=O)CCN1CCOCC1)c1ccccc1S2    64.7
CCOC(=O)C1=C(C)NC(=O)C(C#N)C1c1ccco1 (stereo unspecified)    90
Cc1ccc(-c2nnc(-c3ccc(Br)cc3)o2)o1    86.1
CCC(=O)Nc1ccc(NC(=O)c2ccccn2)cn1    98.2
COc1cccc(C(=O)Nc2ccc(NC(=O)C(C)(C)C)cn2)c1    76.2
O=C1NC(c2cccnc2)C(C(=O)c2cccs2)C(O)(C(F)(F)F)N1 (stereo unspecified)    103
CCCC(=O)Nc1ccc(NC(=O)c2cccs2)cn1    87.8
COc1cccc2cc(C(=O)N3CCc4ccccc43)c(=O)oc12    94.2
CCOc1ccccc1NC(=O)CSc1nnc2c(CC)c(C)nc(N)n12    96.3

// moving on: another record for viability
# viability (compound: COc1ccccc1NC(=O)N(Cc1ccco1)Cc1cc2c(C)ccc(C)c2[nH]c1=O ) is 22.1

---

Assay: reversal of MRP1-mediated doxorubicin resistance, pilot screen, H69AR cells, doxorubicin co-treatment (AID 601)
Conditions: H69AR cells, CellTiter-Glo, 72 h; compound alone cytotoxicity; at 10 µM
Exercise: for every item that follows, state its recorded viability.
Answers are plain numbers, in %.

Some entries whose results are on file:
Cc1cc(NS(=O)(=O)c2ccc(N)cc2)no1    88.9
C1=CC2CC1CC2CN1CCN(c2ccccc2)CC1 (stereo not drawn)    91.8

Could you tell me viability for each of these molecules? They are listed below.
1. COC(=O)Cn1cc(C(=O)c2cccs2)c2ccccc21
2. N#CC(C(=O)C1CCCCC1)c1nc2ccccc2[nH]1 (stereo not drawn)
3. CC(NC(=O)c1cn(C)c2ccc(S(=O)(=O)N3CCCC3)cc2c1=O)c1ccc2c(c1)OCCO2 (stereo not drawn)
4. CCCCC(=O)Nc1ccc(NC(=O)C2CC2)nc1
5. COCCCNC(=O)CCn1c(=O)c2ccccc2n(CC(=O)Nc2ccc(C)cc2C)c1=O
6. CCN(CC)CCN1C(=O)C(O)=C(C(=O)c2cccs2)C1c1ccc(C)o1 (stereo not drawn)

stdout:
96.4
56.1
77.8
101
87.1
98.6

Below is a list of molecules. For each, state its recorded viability.
1. CCOC(=O)c1nnc2ccnn2c1N
2. Cc1nc(-c2coc3cc(OCC(=O)O)ccc3c2=O)cs1

stdout:
[109, 90.5]

For every record below, what is its viability?
1. CC(C)(C)n1ncc2c(=O)n(CC(=O)NCc3ccccc3)cnc21
2. COc1cc(C2Oc3cc(C4Oc5cc(O)cc(O)c5C(=O)C4O)ccc3OC2CO)ccc1O (stereo not drawn)
3. Cc1cc2ncn(S(=O)(=O)c3ccc(S(=O)(=O)N4CCOCC4)cc3)c2cc1C
4. COc1ccc(CC(=O)Nc2ccc(OC)c(NC(=O)c3ccco3)c2)cc1
5. CCOC(=O)CSc1nnc(CNC(=O)c2cccs2)n1-c1cc(OC)ccc1OC

stdout:
1: 15.5; 2: 97.4; 3: 98.3; 4: 81.9; 5: 99.3

Batch of 7 molecules: report viability for each.
1. O=c1cc(C(F)F)oc2c1ccc1ccccc12
2. CCOC(=O)c1c(C)oc2c1c(C=NCc1ccccn1)c(O)c1ccccc12
3. CC(=O)Nc1ccc(S(=O)(=O)NCc2csc(-c3cccnc3)n2)cc1
4. c1ccc(Cn2nnnc2C(c2ccccn2)N2CCOCC2)cc1 (stereo not drawn)
5. COc1ccc(Cl)cc1NC(=O)CCN1CCN(c2ccccc2C)CC1
6. Cn1c(=O)c2ccccc2n(Cc2ccccc2F)c1=O
7. COc1ccc(N2CCN(C(=O)CSc3ncnc4c3cnn4-c3ccccc3C)CC2)cc1

stdout:
[81.7, 16.5, 97.6, 94.3, 97.1, 85.2, 68.6]

Please fill in: viability reported for O=S(=O)(NC1CCCCC1NS(=O)(=O)c1ccc(F)cc1)c1ccc(F)cc1 (stereo not drawn) = 94.1

---

Kindly state viability for each of the entries shown.
Assay: SK-BR-3 cell growth inhibitors, pilot screen, 24 h, human (AID 572);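 also: compound exposure lasted between 18 and 24 h rather than exactly 24 h; 100% = carrier-treated control wells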
Details: SK-BR-3 viability, CellTiter-Glo luminescence, at 10 µM, stronger effect = lower value
One number for each entry, in %.

Some compounds with known viability results, for comparison:
CCOc1ccccc1C1N(c2ccc(F)cc2)C(=O)C2CCCN21 (stereo not given)    109
COc1nc(C)ccc1-c1noc(-c2ccncc2)n1    101
CC1CC(C)CN(c2nc3c(c(=O)[nH]c(=O)n3C)n2CCCSc2nc3ccccc3s2)C1 (stereo not given)    59

Field: viability. Fill in for each record below.
1. Cc1ccc(CCNC(=O)C2CCN(S(=O)(=O)c3cccc4nsnc34)CC2)cc1
2. CCOC(=O)C1CCN(c2cc(C)nc3cc(-c4cccc(F)c4)nn23)CC1

stdout:
1. 93.5
2. 86

---

Assay: HUVEC growth inhibition – cell-based, human, primary screen (AID 575);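 also: 100% = median of untreated cell wells with 0.1% DMSO on each plate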
Conditions: HUVEC proliferation, CellTiter-Glo luminescence, 72 h; at 10 µM
Calls of active or inactive are those of the source.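 Rule for the calls: active = viability at or below 30% in both replicate assays; inconclusive = viability at or below 30% in just one of the two assays; inactive = the rest.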
Select the matching outcome among active, inactive

O=C(NS(=O)(=O)c1ccc(NC(=O)C2CCCO2)cc1)c1ccccc1 (stereo not given)    inactive

stdin: Write down the call the test reported for this compound. Item: Cn1c(=O)c(=O)n(C)c2cc(S(=O)(=O)N3CCCCC3)ccc21
stdout: inactive

stdin: For COc1ccc(N(CC(=O)N2CCCCC2)S(=O)(=O)c2ccccc2)c(OC)c1 , which call appears in the assay record?
stdout: inactive
